# System: U251 CNS
# protocolSummary: NCI-60 one-dose screen, 48 h
# studyConditions: 10 µM unless noted
This is part of a sample that, as a whole, favours compounds with a hit. Of some 83,000 tested, about 20% had one in any assay. Active and inactive are the calls of the source. How the source made its calls: active means growth percent below 10; inactive means the rest.
Pick one: 1 (active), 0 (inactive)

Worked set:
* CCC(C)(C)O | 0
* CO[C@@H]1[C@H](OC(=O)NC(=O)CCl)CC[C@]2(CO2)[C@H]1[C@@]1(C)O[C@@H]1CC=C(C)C | 1

QUERY: Which result was noted for this compound in the test: `C[C@]12CCc3sc(-c4ccc(Cl)cc4)nc3C1=CC[C@@H]1[C@@H]2CC[C@]2(C)C(=O)CC[C@@H]12`
RESULT: 0

QUERY: Next compound up: `CN(C)P1(N(C)C)=NP(N(C)C)(N(C)C)=NP(N(C)C)(N(C)C)=N1`
RESULT: 0

QUERY: Next compound up: `CC(/C=N/N=C(N)N)=N/N=C(N)N`
RESULT: 0

QUERY: Next compound up: `O=C1NC(=O)C(O)(C2(O)C(=O)NC(=O)NC2=O)C(=O)N1`
RESULT: 0

QUERY: Next compound up: `CC(=O)Oc1ccc(Cl)cc1`
RESULT: 0

QUERY: Next compound up: `CC(C)(O)/C=C/C(=O)[C@](C)(O)[C@H]1[C@H](O)C[C@@]2(C)[C@@H]3CC=C4[C@@H](C=C(O)C(=O)C4(C)C)[C@]3(C)C(=O)C[C@]12C`
RESULT: 1

QUERY: Next compound up: COc1ccc(C(=O)c2ccc([As]=O)cc2)cc1 (stereo unspecified)
RESULT: 1

QUERY: Next compound up: `COP(=S)(OC)Oc1ccc(SC)c(C)c1`
RESULT: 0

QUERY: Next compound up: `CC1(C)N=C(N)N=C(N)N1c1ccc(CCCCc2ccc(S(=O)(=O)F)cc2)cc1`
RESULT: 0

---

# System: SF-268 CNS
# protocolSummary: NCI-60 one-dose screen, 48 h (100 = growth as untreated, 0 = no growth, -100 = all killed)
# studyConditions: 10 µM unless noted
Compounds without any hit were thinned out: in the full panel of roughly 83,000, 20% have a hit.
experimentalReadout: growth (%)
Give the number; % is assumed, so skip it.

Completed entries (count: 4):
* COc1cc[c]([Hg][Cl])cc1 | 56.8
* O=C1NC(=O)C(Cc2ccccc2)(Cc2ccccc2)C(=O)N1 | 109
* CC(=O)O[C@@H]1C2=C(C)C3(CC3)[C@@](C)(O)C(=O)C2=C[C@@]1(C)CO | 6.35
* CC(=O)Nc1ccc(Cc2ccc(NC(C)=O)cc2)cc1 | 117

QUERY: Could you tell me which growth is on file for `CC1(C)N=C(N)N=C(N)N1c1cccc(C(=O)Nc2cccc(S(=O)(=O)F)c2)c1` ?
RESULT: 112

QUERY: Next molecule up: CC(=O)C1CCC2C3CC=C4CC(OC(=O)Cc5ccc(N(CCCl)CCCl)cc5)CCC4(C)C3CCC12C (centres undefined)
RESULT: 93.7

QUERY: Next molecule up: `O=C(NCc1ccc([N+](=O)[O-])cc1)Nc1ccc(S(=O)(=O)F)cc1`
RESULT: 89.9

QUERY: Next molecule up: `O=[N+]([O-])c1ccc(F)c([N+](=O)[O-])c1F`
RESULT: 103

QUERY: Next molecule up: O=C(c1cccs1)C1NO[N+]([O-])=C1c1cccs1 (centres undefined)
RESULT: 109

QUERY: Next molecule up: `O=C(O)c1cccc(CCl)c1`
RESULT: 102

QUERY: Next molecule up: Cc1ccc2oc(=O)c3c(c2c1)OC(N)=C(C#N)C3c1ccco1 (centres undefined)
RESULT: 101

QUERY: Next molecule up: CC(C)(C)NCC(O)c1ccccc1Cl (centres undefined)
RESULT: 26.6
